- experimental-system: beta-catenin/TCF4 engagement (Homo sapiens)
- Construct: expressed in transfected cells; host or cells: HEK293
- Sequence (P35222 whole entry): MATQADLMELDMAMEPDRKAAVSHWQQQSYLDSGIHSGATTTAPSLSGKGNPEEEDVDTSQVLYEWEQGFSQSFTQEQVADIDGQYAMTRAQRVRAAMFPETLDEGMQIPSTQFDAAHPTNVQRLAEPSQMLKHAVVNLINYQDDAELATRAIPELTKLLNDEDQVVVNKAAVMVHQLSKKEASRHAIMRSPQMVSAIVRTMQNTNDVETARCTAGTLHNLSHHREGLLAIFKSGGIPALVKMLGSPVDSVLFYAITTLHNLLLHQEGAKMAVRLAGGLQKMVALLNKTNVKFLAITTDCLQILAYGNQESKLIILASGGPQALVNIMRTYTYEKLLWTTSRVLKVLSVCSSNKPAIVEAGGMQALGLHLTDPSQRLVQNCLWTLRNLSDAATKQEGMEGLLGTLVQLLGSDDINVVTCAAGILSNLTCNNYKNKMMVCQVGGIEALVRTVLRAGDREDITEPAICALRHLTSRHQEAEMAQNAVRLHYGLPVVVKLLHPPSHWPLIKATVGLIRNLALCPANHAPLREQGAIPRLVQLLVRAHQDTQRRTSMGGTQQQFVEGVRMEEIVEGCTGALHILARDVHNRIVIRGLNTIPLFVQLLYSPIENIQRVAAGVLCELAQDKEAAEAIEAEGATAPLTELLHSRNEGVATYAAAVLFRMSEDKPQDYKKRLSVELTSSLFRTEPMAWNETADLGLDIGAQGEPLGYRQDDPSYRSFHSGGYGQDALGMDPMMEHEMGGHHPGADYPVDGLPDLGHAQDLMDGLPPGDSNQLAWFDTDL
- method-notes: Nano-BRET target engagement assay (B-cat-Halo & TCF4-Luc in HEK293 cells)
- Format: cell-based
- assay-conditions: read-out: NanoBRET Abs IC50
measured-endpoint: IC50

compound="CCSSCCOC(=O)C[C@@H]1NC(=O)[C@H](CC(=O)O)NC(=O)C2(CCCC=CCCCOC(=O)N3CC[C@@](C(=O)N[C@@H](Cc4ccsc4)C(=O)N[C@@H](Cc4csc5ccccc45)C(=O)N[C@@H](CCC(N)=O)C(N)=O)(C3)NC(=O)[C@H](CC(C)C)NC(=O)[C@H](Cc3ccccc3)NC(=O)[C@H](C)NC(=O)[C@H](C)NC1=O)CCCC=CC[C@]1(CCCN1C(C)=O)C(=O)N[C@@H](CC(=O)O)C(=O)N[C@@H](CC(C)(C)C)C(=O)N2 (some centres unmarked)" reported_measurement="25.2 µM"

Task: Tell us which IC50 value is on record for CC(=O)N1CCC[C@]12CC=CCCCC1(CCCC=CCCCOC(=O)N3CC[C@@](C(=O)N[C@@H](Cc4ccsc4)C(=O)N[C@@H](Cc4csc5ccccc45)C(=O)N[C@H](Cc4c[nH]cn4)C(N)=O)(C3)NC(=O)[C@H](CC(N)=O)NC(=O)[C@H](Cc3ccccc3)NC(=O)[C@H](C)NC(=O)[C@H](C)NC(=O)[C@H](CC(=O)O)NC(=O)[C@H](CC(=O)O)NC1=O)NC(=O)[C@H](CC(C)(C)C)NC(=O)[C@H](CC(=O)O)NC2=O (some centres unmarked)
Output: 20.9 µM

====

- experimental-system: full-length beta-Catenin (Uniprot ID P35222) (Homo sapiens)
- Construct: 10 nM full-length beta-Catenin (Uniprot ID P35222)
- method-notes: Fluorescence polarization IC50 (beta-catenin / 5FAM-TCF4 10-53 competition)
- Assay type: binding
- assay-conditions: read-out: beta-Catenin FP IC50
measured-endpoint: pIC50
Keep in mind that pIC50 stands for -log10 of concentration in molar terms.

Some entries whose results are on file:
compound="CC(=O)N1CCC[C@]12CC=CCCCC1(CCCC=CCCCCCC[C@@](C)(C(=O)N[C@@H](Cc3ccccc3Cl)C(=O)N[C@@H](Cc3csc4ccccc34)C(=O)N[C@@H](C(N)=O)[C@H](C)O)NC(=O)[C@H](CC(C)C)NC(=O)[C@H](Cc3ccccc3)NC(=O)[C@H](C)NC(=O)[C@H](C)NC(=O)[C@H](CC(=O)O)NC(=O)[C@H](CC(=O)O)NC1=O)NC(=O)[C@H](CC(C)(C)C)NC(=O)[C@H](CC(=O)O)NC2=O (some centres unmarked)" measured_endpoint=pIC50 reported_measurement=7.40
compound="CC(=O)N1CCC[C@]12CC=CCCCC1(CCCC=CCCCOC(=O)N3CC[C@@](C(=O)N[C@@H](Cc4ccccc4Cl)C(=O)N[C@@H](Cc4csc5ccccc45)C(=O)N[C@@H](C(N)=O)[C@H](C)O)(C3)NC(=O)[C@H]([C@@H](C)O)NC(=O)[C@H](Cc3ccccc3)NC(=O)[C@H](C)NC(=O)[C@H](C)NC(=O)[C@H](CCC(=O)O)NC(=O)[C@H](CC(=O)O)NC1=O)NC(=O)[C@H](CC(C)(C)C)NC(=O)[C@H](CC(=O)O)NC2=O (some centres unmarked)" measured_endpoint=pIC50 reported_measurement=7.52
compound="CC(=O)N1CCC[C@]12CC=CCCCC1(CCCC=CCCCOC(=O)N3CC[C@@](C(=O)N[C@@H](Cc4ccsc4)C(=O)N[C@@H](Cc4csc5ccccc45)C(=O)N[C@@H](CCC(N)=O)C(N)=O)(C3)NC(=O)[C@H]([C@@H](C)O)NC(=O)[C@H](Cc3ccccc3)NC(=O)[C@H](C)NC(=O)[C@H](C)NC(=O)[C@H](CC(=O)O)NC(=O)[C@H](CC(=O)O)NC1=O)NC(=O)[C@H](CC(C)(C)C)NC(=O)[C@H](CC(=O)O)NC2=O (some centres unmarked)" measured_endpoint=pIC50 reported_measurement=8.30
compound="CC(=O)N1CCC[C@]12CC=CCCCC1(CCCC=CCCCCCC[C@@](C)(C(=O)N[C@@H](Cc3ccccc3C(F)(F)F)C(=O)N[C@@H](Cc3csc4ccccc34)C(=O)N[C@@H](CCC(N)=O)C(N)=O)NC(=O)[C@H](CC(N)=O)NC(=O)[C@H](Cc3ccccc3)NC(=O)[C@H](C)NC(=O)[C@H](C)NC(=O)[C@H](CN(CC(=O)O)CC(F)(F)F)NC(=O)[C@H](CC(=O)O)NC1=O)NC(=O)[C@H](CC(C)(C)C)NC(=O)[C@H](CC(=O)O)NC2=O (some centres unmarked)" measured_endpoint=pIC50 reported_measurement=7.16

// next item, pIC50 requested
Task: Entry CC(=O)N1CCC[C@]12CC=CCCCC1(CCCC=CCCCOC(=O)N3CC[C@@](C(=O)N[C@@H](Cc4ccccc4Cl)C(=O)N[C@@H](Cc4csc5ccccc45)C(=O)N[C@@H](C(N)=O)[C@H](C)O)(C3)NC(=O)[C@H](CC(N)=O)NC(=O)[C@H](Cc3ccccc3)NC(=O)[C@H](C)NC(=O)[C@H](C)NC(=O)[C@H](CCC(=O)O)NC(=O)[C@H](CC(=O)O)NC1=O)NC(=O)[C@H](CC(C)(C)C)NC(=O)[C@H](CC(=O)O)NC2=O (some centres unmarked) needs its pIC50 filled in; supply it.
Output: 7.96

====

- experimental-system: full-length beta-Catenin (Uniprot ID P35222) (Homo sapiens, UniProt P35222)
- Construct: 10 nM full-length beta-Catenin (Uniprot ID P35222)
- Sequence (P35222 whole entry, one chain of several): as the sequence (P35222 whole entry) above
- method-notes: Fluorescence polarization IC50 (beta-catenin / 5FAM-TCF4 10-53 competition)
- Format: binding
- assay-conditions: read-out: beta-Catenin FP IC50
measured-endpoint: pIC50
Please keep in mind that pIC50 is minus log10 of the molar concentration; only the number is needed.

Solved entries (count: 2):
compound="CC(=O)N1CCC[C@]12CC=CCCCC1(CCCC=CCCCOC(=O)N3CC[C@@](C(=O)N[C@@H](Cc4ccsc4)C(=O)N[C@@H](Cc4csc5ccccc45)C(=O)N[C@@H](CCC(N)=O)C(N)=O)(C3)NC(=O)[C@H](Cc3ccccc3)NC(=O)[C@H](Cc3ccccc3)NC(=O)[C@H](C)NC(=O)[C@H](C)NC(=O)[C@H](Cc3ccccc3C(=O)O)NC(=O)[C@H](CC(=O)O)NC1=O)NC(=O)[C@H](CC(C)(C)C)NC(=O)[C@H](CC(=O)O)NC2=O (some centres unmarked) [I-853]" reported_measurement=8.10
compound="CC(=O)N1CCC[C@]12CC=CCCCC1(CCCC=CCCCOC(=O)N3CC[C@@](C(=O)N[C@@H](Cc4ccsc4)C(=O)N[C@@H](Cc4csc5ccccc45)C(=O)N[C@@H](CCC(N)=O)C(N)=O)(C3)NC(=O)[C@H](CC(N)=O)NC(=O)[C@H](Cc3ccccc3)NC(=O)[C@H](C)NC(=O)[C@H](C)NC(=O)[C@H](Cc3cccc(C(=O)O)c3)NC(=O)[C@H](CC(=O)O)NC1=O)NC(=O)[C@H](CC(C)(C)C)NC(=O)[C@H](CC(=O)O)NC2=O (some centres unmarked) [I-977]" reported_measurement=6.06

Task: Item CC(=O)N1CCC[C@]12CC=CCCCC1(CCCC=CCCCOC(=O)N3CC[C@@](C(=O)N[C@@H](Cc4ccccc4Cl)C(=O)N[C@@H](Cc4csc5ccccc45)C(=O)N[C@@H](CO)C(N)=O)(C3)NC(=O)[C@H](CO)NC(=O)[C@H](Cc3ccccc3)NC(=O)[C@H](C)NC(=O)[C@H](C)NC(=O)[C@H](CC(=O)O)NC(=O)[C@H](CC(=O)O)NC1=O)NC(=O)[C@H](CC(C)(C)C)NC(=O)[C@H](CC(=O)O)NC2=O (some centres unmarked) [I-1019] : provide pIC50
Output: 8.30

Task: Quote pIC50 reported for CCCC(=O)NCCCC[C@H](NC(=O)[C@H](CCC(N)=O)NC(=O)[C@H](Cc1csc2ccccc12)NC(=O)[C@H](Cc1ccsc1)NC(=O)[C@]12CCN(C1)C(=O)OCCCC=CCCCC1(CCCC=CC[C@]3(CCCN3C(C)=O)C(=O)N[C@@H](CC(=O)O)C(=O)N[C@@H](CC(C)(C)C)C(=O)N1)C(=O)N[C@@H](CC(=O)O)C(=O)N[C@@H](CC(=O)O)C(=O)N[C@@H](C)C(=O)N[C@@H](C)C(=O)N[C@@H](Cc1ccccc1)C(=O)N[C@@H](CC(N)=O)C(=O)N2)C(N)=O (some centres unmarked) [I-917] please.
Output: 7.92

Task: Identify the reported pIC50 for the following entry. CC(=O)N1CCC[C@]12CC=CCCCC1(CCCC=CCCCCCC[C@@](C)(C(=O)N[C@@H](Cc3ccccc3Cl)C(=O)N[C@@H](Cc3csc4ccccc34)C(=O)N[C@@H](CCC(N)=O)C(N)=O)NC(=O)[C@H](Cc3ccccc3)NC(=O)[C@H](Cc3ccccc3)NC(=O)[C@H](C)NC(=O)[C@H](C)NC(=O)[C@H](CN(CC(=O)O)CC(F)(F)F)NC(=O)[C@H](CC(=O)O)NC1=O)NC(=O)[C@H](CC(C)(C)C)NC(=O)[C@H](CC(=O)O)NC2=O (some centres unmarked) [I-931]
Output: 6.66
